B1: library; a variant is named by its letters at N, in order (parent)
chain: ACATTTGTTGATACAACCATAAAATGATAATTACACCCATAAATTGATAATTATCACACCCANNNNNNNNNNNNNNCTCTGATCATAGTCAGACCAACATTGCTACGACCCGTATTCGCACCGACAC

Variants of: B1
ASSAY OVERVIEW: relative integration efficiency (T-LR orientation) vs wild-type transposon end (log2 (normalized fold change)); transposon end mutated: right end (5 bp flank + 75 bp right end); higher = more efficient transposition
REPORTED CONDITIONS: with VchCAST RNA-guided transposition machinery (E. coli BL21(DE3) host, lacZ target)
TEST READOUT: relative integration efficiency (log2)
Reply with the value as a number alone.

Which relative integration efficiency (log2) value is on record for `TAAATTGATATTCG` ?
-0.258

Which relative integration efficiency (log2) value is on record for ATTTAACTATAACG A43C ?
2.4

Which relative integration efficiency (log2) value is on record for TAAATTGATATTGC C55G ?
0.0542

Which relative integration efficiency (log2) value is on record for TAAATTGATATTGC C36G ?
-0.695

Which relative integration efficiency (log2) value is on record for ATTTAACTATAACG A43G ?
2.29

Which relative integration efficiency (log2) value is on record for ATTTAACTATAACG T12G ?
1.76

Which relative integration efficiency (log2) value is on record for `CAAATTGATATTGC` ?
1.86

Which relative integration efficiency (log2) value is on record for TAAATTGATATTGC C38T ?
-0.111

Which relative integration efficiency (log2) value is on record for TAAATTGATATTGC A1T ?
-0.0517

Which relative integration efficiency (log2) value is on record for ATTTAACTATAACG A23G ?
2.07

All figures here come from the supplement of paper PMC10201428.
